Target: JAK2 (Homo sapiens)
Construct: endogenous in cells
Sequence (O60674 whole entry): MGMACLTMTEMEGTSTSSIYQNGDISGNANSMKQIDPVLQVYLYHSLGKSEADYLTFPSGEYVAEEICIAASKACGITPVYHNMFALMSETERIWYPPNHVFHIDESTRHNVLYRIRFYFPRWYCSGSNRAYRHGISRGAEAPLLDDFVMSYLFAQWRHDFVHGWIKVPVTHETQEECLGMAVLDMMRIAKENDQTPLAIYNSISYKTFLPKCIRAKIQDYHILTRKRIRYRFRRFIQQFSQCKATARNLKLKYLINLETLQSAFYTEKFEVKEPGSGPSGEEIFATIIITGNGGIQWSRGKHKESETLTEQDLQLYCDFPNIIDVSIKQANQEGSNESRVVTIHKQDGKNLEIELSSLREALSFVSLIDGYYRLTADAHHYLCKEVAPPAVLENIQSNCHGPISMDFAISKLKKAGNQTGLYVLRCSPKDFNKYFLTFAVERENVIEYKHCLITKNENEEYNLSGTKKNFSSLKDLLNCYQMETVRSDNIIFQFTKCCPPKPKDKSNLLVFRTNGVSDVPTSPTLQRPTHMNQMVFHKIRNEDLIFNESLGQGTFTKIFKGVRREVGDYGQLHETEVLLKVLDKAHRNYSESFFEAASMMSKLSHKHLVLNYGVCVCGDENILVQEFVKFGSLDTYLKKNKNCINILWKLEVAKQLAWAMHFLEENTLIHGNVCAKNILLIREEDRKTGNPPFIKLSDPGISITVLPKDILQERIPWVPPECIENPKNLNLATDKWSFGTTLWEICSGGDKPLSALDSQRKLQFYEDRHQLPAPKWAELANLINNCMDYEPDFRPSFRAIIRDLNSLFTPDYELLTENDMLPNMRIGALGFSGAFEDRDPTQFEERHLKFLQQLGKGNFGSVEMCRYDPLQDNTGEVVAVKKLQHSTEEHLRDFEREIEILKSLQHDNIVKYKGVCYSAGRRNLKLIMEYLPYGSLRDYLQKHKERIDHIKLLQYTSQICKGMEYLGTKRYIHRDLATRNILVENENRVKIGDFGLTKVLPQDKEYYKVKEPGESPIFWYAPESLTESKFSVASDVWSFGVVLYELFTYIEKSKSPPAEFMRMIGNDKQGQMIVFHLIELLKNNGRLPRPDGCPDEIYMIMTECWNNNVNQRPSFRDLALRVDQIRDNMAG
Test: Kinobeads assay, JAK2
Conditions: mixed Molt4/Ramos lysate, read-out: Inhibition values (IC50) JAK2
Description: The compounds of the present invention as described in the previous examples were tested in a Kinobeads™ assay as described for ZAP-70 (WO-A 2007/137867). […] Bound proteins were then eluted and the presence of JAK1, JAK2, JAK3 and TYK2 was detected and quantified using specific antibodies in a dot blot procedure and the Odyssey infrared detection system. Dose response curves for individual kinases were generated and IC50 values calculated. […]
pIC50: −log10 of the molar value.
Form field: pIC50 (one value per entry).

Solved entries:
| Molecule | Target System | Experimental Result |
| --- | --- | --- |
| Cn1cc(-c2cccc([C@@H](CO)Nc3nc(Nc4cnn(CCO)c4)ncc3Cl)c2)cn1 [Compound 151] | JAK2 (Homo sapiens) | ≤ 5.00 |
| CNC(=O)Cn1cc(Nc2ncc(Cl)c(NC(CO)c3ccccc3Cl)n2)cn1 (centres unmarked) [Compound 119] | JAK2 (Homo sapiens) | 5.00 to 6.00 |
| CN(C)CCCNC(=O)Cn1cc(Nc2ncc(Cl)c(N[C@H](CO)c3ccccc3)n2)cn1 [Compound 90] | JAK2 (Homo sapiens) | 5.00 to 6.00 |
| Cn1cc(Nc2ncc(F)c(N[C@H](CO)c3cc(F)cc(F)c3)n2)cn1 [Compound 158] | JAK2 (Homo sapiens) | 5.00 to 6.00 |
| Cc1cnc(Nc2cnn(CCO)c2)nc1NC(CO)c1ccccc1 (centres unmarked) [Compound 12] | JAK2 (Homo sapiens) | ≤ 5.00 |

Lookup: In one line, give reported pIC50 of the entry CC(O)Cn1cc(Nc2ncc(Cl)c(NC(CO)c3cccc(F)c3)n2)cn1 (centres unmarked) [Compound 38] .
Found: 5.00 to 6.00

Lookup: Input CC(C)n1cc(Nc2ncc(Cl)c(N[C@H](CO)c3cccnc3)n2)cn1 [Compound 107] , output reported pIC50.
Found: 5.00 to 6.00

Lookup: Query pIC50 for Cn1cc(Nc2ncc(Cl)c(NC(CO)c3cc(F)ccc3F)n2)cn1 (centres unmarked) [Compound 129]
Found: 6.00 to 7.00

---

molecular target: TYK2 (Homo sapiens, UniProt P29597); construct: endogenous in cells; experiment: Kinobeads assay, TYK2; details: mixed Molt4/Ramos lysate, read-out: Inhibition values (IC50) TYK2
Sequence (P29597 whole entry): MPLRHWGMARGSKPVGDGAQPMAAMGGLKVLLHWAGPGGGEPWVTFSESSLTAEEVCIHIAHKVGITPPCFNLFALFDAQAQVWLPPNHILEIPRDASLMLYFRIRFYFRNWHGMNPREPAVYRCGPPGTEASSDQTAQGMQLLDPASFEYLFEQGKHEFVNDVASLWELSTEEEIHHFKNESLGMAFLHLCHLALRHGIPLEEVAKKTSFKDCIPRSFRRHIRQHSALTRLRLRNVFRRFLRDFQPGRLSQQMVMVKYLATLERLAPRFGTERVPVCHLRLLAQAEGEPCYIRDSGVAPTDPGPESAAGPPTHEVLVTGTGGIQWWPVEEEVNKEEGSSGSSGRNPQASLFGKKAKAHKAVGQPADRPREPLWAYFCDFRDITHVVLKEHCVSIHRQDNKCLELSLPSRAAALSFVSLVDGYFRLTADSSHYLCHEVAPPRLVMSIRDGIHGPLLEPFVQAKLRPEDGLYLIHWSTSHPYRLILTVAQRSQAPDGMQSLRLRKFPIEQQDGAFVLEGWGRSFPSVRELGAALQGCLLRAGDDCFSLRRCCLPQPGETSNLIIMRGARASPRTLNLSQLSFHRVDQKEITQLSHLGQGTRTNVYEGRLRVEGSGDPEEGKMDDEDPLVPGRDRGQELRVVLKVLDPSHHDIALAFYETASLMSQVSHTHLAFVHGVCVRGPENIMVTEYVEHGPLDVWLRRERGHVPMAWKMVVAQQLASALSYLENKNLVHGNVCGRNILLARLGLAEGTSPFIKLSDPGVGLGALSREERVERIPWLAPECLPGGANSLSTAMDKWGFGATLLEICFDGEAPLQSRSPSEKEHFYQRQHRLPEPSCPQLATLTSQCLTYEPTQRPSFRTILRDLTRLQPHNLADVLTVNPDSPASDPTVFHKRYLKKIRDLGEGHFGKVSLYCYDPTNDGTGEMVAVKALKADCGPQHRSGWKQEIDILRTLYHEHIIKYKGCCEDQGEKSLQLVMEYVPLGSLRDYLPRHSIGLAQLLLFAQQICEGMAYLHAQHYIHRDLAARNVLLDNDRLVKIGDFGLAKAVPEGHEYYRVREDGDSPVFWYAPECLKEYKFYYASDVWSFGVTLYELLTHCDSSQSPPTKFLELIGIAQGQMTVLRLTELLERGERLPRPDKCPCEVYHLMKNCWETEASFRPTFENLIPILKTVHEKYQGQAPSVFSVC
Here, each record is paired with measured IC50 data.

These recorded examples may help you get a feel for the data.
| Compound | Experimental Result |
| --- | --- |
| CNC(=O)Cn1cc(Nc2ncc(F)c(N[C@H](CO)c3cccc(-c4cnn(C)c4)c3)n2)cn1 [Compound 155] | ≥ 10 µM |
| O=C(NCCO)[C@@H](Nc1nc(Nc2cnn(CCO)c2)ncc1Cl)c1ccccc1 [Compound 47] | 1 to 10 µM |
| Cn1cc(Nc2ncc(C(F)(F)F)c(N[C@H](CO)c3ccccc3)n2)cn1 [Compound 6] | ≥ 10 µM |
| CNC(=O)Cn1cc(Nc2ncc(C)c(N[C@H](CO)c3ccccc3)n2)cn1 [Compound 133] | 1 to 10 µM |

Lookup: Look up and report measured IC50 for this entry: Cn1cc(Nc2ncc(Cl)c(N[C@H](CO)c3cccc(F)c3)n2)cn1 [Compound 85]
Found: 0.1 to 1 µM

Lookup: Quote IC50 reported for OCCn1cc(Nc2ncc(Cl)c(NC(CO)c3cccc(Br)c3)n2)cn1 (stereo not shown) [Compound 93] please.
Found: 0.1 to 1 µM

Lookup: Identify measured IC50 associated with O=C(Cn1cc(Nc2ncc(Cl)c(N[C@H](CO)c3ccccc3)n2)cn1)NC1CC1 [Compound 68]
Found: 0.1 to 1 µM

Lookup: Retrieve IC50 measured for OCCn1cc(Nc2ncc(Cl)c(NC(CO)c3cc(F)cc(F)c3)n2)cn1 (stereo not shown) [Compound 122] and print it.
Found: 0.1 to 1 µM

Lookup: Please look at this compound and report its IC50: OCCn1ccc(Nc2ncc(Cl)c(NC(CO)c3cccc(F)c3)n2)n1 (stereo not shown) [Compound 41]
Found: ≥ 10 µM

Lookup: Return IC50 for the following compound: Cn1cc(Nc2ncc(Cl)c(N[C@H](CO)c3ccccc3F)n2)cn1 [Compound 58]
Found: 1 to 10 µM

Lookup: Identify IC50 associated with the compound NC(=O)Cn1cc(Nc2ncc(Cl)c(N[C@H](CO)c3cc(F)cc(F)c3)n2)cn1 [Compound 144]
Found: 0.1 to 1 µM

Lookup: Identify IC50 associated with the compound CC(O)Cn1cc(Nc2ncc(Cl)c(NC(CO)c3c(F)cccc3F)n2)cn1 (stereo not shown) [Compound 42]
Found: 0.1 to 1 µM

Lookup: Identify measured IC50 corresponding to Cn1cc(Nc2ncc(Cl)c(NC(CO)Cc3ccccc3)n2)cn1 (stereo not shown) [Compound 14]
Found: 1 to 10 µM

Lookup: Indicate the recorded IC50 value for this compound: Cn1cc(Nc2ncc(Cl)c(NC(CO)c3cccc(-c4cnn(C)c4)c3)n2)cn1 (stereo not shown) [Compound 69]
Found: ≥ 10 µM

Lookup: Tell us which IC50 value is on record for OCCn1cc(Nc2ncc(Cl)c(N[C@H](CO)c3ccccc3)n2)cn1 [Compound 9]
Found: 1 to 10 µM

Lookup: Answer with the recorded IC50 of CC(C)NC(=O)Cn1cc(Nc2ncc(Cl)c(N[C@H](CO)c3ccccc3)n2)cn1 [Compound 67] only.
Found: 0.1 to 1 µM

Lookup: Specify reported IC50 for the compound shown: OC[C@@H](Nc1nc(Nc2cnn(CC(F)F)c2)ncc1Cl)c1ccccc1F [Compound 165]
Found: 1 to 10 µM

Lookup: Recall and state the measured IC50 for Cc1cnc(Nc2cnn(CCO)c2)nc1NC(CO)c1ccccc1 (stereo not shown) [Compound 12] .
Found: 1 to 10 µM

Lookup: Identify IC50 associated with the compound CNC(=O)Cn1cc(Nc2ncc(Cl)c(NC(CO)c3ccccc3Cl)n2)cn1 (stereo not shown) [Compound 119]
Found: 1 to 10 µM

Lookup: Identify the reported IC50 for the following entry. Cn1cc(Nc2ncc(Cl)c(N[C@H](C(=O)N3CCCCC3)c3ccccc3)n2)cn1 [Compound 49]
Found: ≥ 10 µM

Lookup: State its IC50: OCCn1cc(Nc2ncc(F)c(N[C@H](CO)c3ccccc3)n2)cn1 [Compound 10]
Found: 1 to 10 µM

Lookup: Answer with reported IC50 of Cn1cc(-c2cc(F)cc([C@@H](CO)Nc3nc(Nc4cnn(CCO)c4)ncc3F)c2)cn1 [Compound 153]
Found: ≥ 10 µM

Lookup: Give recorded IC50. CC(C)(O)Cn1cc(Nc2ncc(Cl)c(NC(CO)c3ccccc3F)n2)cn1 (stereo not shown) [Compound 57]
Found: 1 to 10 µM

---

Here, each record is paired with measured IC50 data.
biological target: JAK2 (Homo sapiens); construct: endogenous in cells; test: Kinobeads assay, JAK2; conditions: mixed Molt4/Ramos lysate, read-out: Inhibition values (IC50) JAK2

| Smi | IC50 |
| --- | --- |
| CN(CC#N)C(=O)Cn1cc(Nc2ncc(Cl)c(N[C@H](CO)c3ccccc3)n2)cn1 | 1000 to 10000 nM |

Lookup: For `OCCn1cc(Nc2ncc(Cl)c(N[C@H](CO)c3cc(F)cc(F)c3)n2)cn1` , write its IC50.
Found: 100 to 1000 nM

Lookup: Look up IC50 of `O=C(Cn1cc(Nc2ncc(F)c(N[C@H](CO)c3ccccc3)n2)cn1)N1CCOCC1` and report it.
Found: ≥ 10000 nM

Lookup: Supply measured IC50 of `Cc1cnc(Nc2cnn(CC(=O)N(C)C)c2)nc1N[C@H](CO)c1ccccc1` in your reply.
Found: 1000 to 10000 nM

---

molecular target: JAK1 (Homo sapiens, UniProt P23458); construct: endogenous in cells; assay: Kinobeads assay, JAK1; details: mixed Molt4/Ramos lysate, read-out: Inhibition values (IC50) JAK1
Sequence (P23458 whole entry): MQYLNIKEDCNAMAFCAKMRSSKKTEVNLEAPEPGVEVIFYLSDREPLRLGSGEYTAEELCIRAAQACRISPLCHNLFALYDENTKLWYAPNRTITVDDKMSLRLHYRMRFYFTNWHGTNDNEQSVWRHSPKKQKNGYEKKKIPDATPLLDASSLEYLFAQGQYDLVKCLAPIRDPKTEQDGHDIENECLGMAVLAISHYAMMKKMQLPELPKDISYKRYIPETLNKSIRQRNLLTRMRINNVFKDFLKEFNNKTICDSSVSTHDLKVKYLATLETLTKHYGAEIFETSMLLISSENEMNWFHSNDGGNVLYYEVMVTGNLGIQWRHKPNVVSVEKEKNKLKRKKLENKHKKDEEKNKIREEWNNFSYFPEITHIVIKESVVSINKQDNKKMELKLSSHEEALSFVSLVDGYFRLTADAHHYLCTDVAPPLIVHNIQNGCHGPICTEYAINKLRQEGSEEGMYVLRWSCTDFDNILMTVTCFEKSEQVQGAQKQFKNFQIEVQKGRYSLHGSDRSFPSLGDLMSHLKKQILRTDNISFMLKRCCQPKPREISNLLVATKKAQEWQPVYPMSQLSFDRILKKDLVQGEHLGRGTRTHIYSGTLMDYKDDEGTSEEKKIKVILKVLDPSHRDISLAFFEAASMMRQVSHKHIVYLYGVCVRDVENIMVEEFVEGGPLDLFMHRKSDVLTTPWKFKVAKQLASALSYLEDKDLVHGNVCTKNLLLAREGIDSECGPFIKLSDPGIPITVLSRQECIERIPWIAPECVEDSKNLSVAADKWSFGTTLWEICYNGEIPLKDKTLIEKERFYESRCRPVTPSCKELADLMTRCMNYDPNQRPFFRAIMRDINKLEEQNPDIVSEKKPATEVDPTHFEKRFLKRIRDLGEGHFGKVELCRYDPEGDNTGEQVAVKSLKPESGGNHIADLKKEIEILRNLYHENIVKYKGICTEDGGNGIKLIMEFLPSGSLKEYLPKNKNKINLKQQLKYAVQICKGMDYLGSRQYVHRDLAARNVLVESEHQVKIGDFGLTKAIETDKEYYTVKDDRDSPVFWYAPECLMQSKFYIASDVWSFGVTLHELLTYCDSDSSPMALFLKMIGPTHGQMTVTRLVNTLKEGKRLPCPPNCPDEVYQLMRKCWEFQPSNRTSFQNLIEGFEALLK
Recorded IC50 by entry

Solved cases below.
| Compound | Experimental Result |
| --- | --- |
| CNC(=O)Cn1cc(Nc2ncc(Cl)c(NC(CO)c3c(F)cccc3F)n2)cn1 (centres unmarked) | 1 to 10 µM |
| OCCn1cc(Nc2ncc(Cl)c(NC(CO)c3cccc(F)c3)n2)cn1 (centres unmarked) | 0.1 to 1 µM |
| CNC(=O)Cn1cc(Nc2ncc(F)c(N[C@H](CO)c3cc(F)cc(F)c3)n2)cn1 | 0.1 to 1 µM |
| Cc1cnc(Nc2cnn(C)c2)nc1N[C@H](CO)c1cc(F)cc(F)c1 | 0.1 to 1 µM |
| CNC(=O)Cn1cc(Nc2ncc(Cl)c(NC(CO)c3ccccc3Cl)n2)cn1 (centres unmarked) | 0.1 to 1 µM |

Lookup: Report measured IC50; entry is CC(C)(O)Cn1cc(Nc2ncc(Cl)c(NC(CO)c3cccc(F)c3)n2)cn1 (centres unmarked)
Found: 1 to 10 µM

Lookup: Please report the measured IC50 for Cn1cc(Nc2ncc(C(F)(F)F)c(NC(C)(CO)c3ccccc3)n2)cn1 (centres unmarked)
Found: > 10 µM

Lookup: In one line, give reported IC50 of the entry `OCCn1cc(Nc2ncc(F)c(N[C@H](CO)c3cc(F)cc(F)c3)n2)cn1` .
Found: 0.1 to 1 µM
